molecular target: M1-linked tetra-ubiquitin (UniProt P0CG48 1-76; P0CG48 1-76; P0CG48 1-76; P0CG48 1-76); assay: SPR
Sequence (P0CG48 1-304, one chain of several): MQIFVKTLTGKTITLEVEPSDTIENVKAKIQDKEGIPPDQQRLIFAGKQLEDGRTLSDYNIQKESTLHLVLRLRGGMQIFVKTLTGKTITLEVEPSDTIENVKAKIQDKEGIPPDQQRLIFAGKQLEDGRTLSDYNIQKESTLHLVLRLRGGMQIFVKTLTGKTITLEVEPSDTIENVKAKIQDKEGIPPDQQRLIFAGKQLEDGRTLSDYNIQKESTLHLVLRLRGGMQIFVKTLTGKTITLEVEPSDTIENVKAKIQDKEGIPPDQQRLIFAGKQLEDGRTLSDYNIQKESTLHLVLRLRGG
pKd: −log10 of the molar value.
value_type: pKd

Use these answered entries as a reference point.
binder: GST-OPTN UBAN (aa 420-509), wild type (domain or fragment, human, UniProt Q96CV9 420-509, looked up) RAVLKELSEKLELAEKALASKQLQMDEMKQTIAKQEEDLETMTILRAQMEVYCSDFHAERAAREKIHEEKEQLALQLAVLLKENDAFEDG
value_observed: 6.04
--
binder: GST-NEMO UBAN (aa 250-339), wild type (domain or fragment, mouse, UniProt O88522 250-339, looked up) GMQLEDLRQQLQQAEEALVAKQELIDKLKEEAEQHKIVMETVPVLKAQADIYKADFQAERHAREKLVEKKEYLQEQLEQLQREFNKLKVG
value_observed: 6.25
--
binder: GST-OPTN UBAN (aa 420-509) S473E (domain or fragment, human, UniProt Q96CV9 420-509, looked up) RAVLKELSEKLELAEKALASKQLQMDEMKQTIAKQEEDLETMTILRAQMEVYCEDFHAERAAREKIHEEKEQLALQLAVLLKENDAFEDG
value_observed: 6.29

[I] GST-NEMO UBAN (aa 250-339) A303E (domain or fragment, mouse, UniProt O88522 250-339, looked up) GMQLEDLRQQLQQAEEALVAKQELIDKLKEEAEQHKIVMETVPVLKAQADIYKEDFQAERHAREKLVEKKEYLQEQLEQLQREFNKLKVG
[II] GST-ABIN-1 UBAN (aa 463-532), wild type (domain or fragment, mouse, UniProt Q9WUU8 463-532, looked up) LRKQELVTQNELLKQQVKIFEEDFQRERSDRERMNEEKEELKKQVEKLQAQVTLTNAQLKTLKEEEKAKE
q: Pick one: I or II . Which one has the lower reported pKd? Refer to your chosen entry by its label in the reply.
a: II
(II: 6.01, I: 6.44)
